Where these numbers come from: patent US11389438B2

Biological target: pre-formed polyQ46 or Exon1-polyQ46 aggregates (mHTT) (Homo sapiens, UniProt P42858, INS38QQQQQQQQQQQQQQQQQQQQQQQQQ)
Experiment: Q46_RBA radioligand binding assay (displacement of [3H]-radioligand)
Where a name gives a salt, the structure may show the parent alone.
parameter: IC50

Reference set, count: 10
compound: CC(C)C[C@H](NC(=O)[C@@H](O)[C@H](N)Cc1ccccc1)C(=O)NCCOCCOCCOCCOCCOCCOc1ccc(C(=O)Nc2ccc3oc(-c4ccc(=O)n(C)n4)nc3c2)nc1
IC50: < 0.1 µM
--
compound: Cn1nc(-c2nc3cc(NC(=O)c4ccc(OCCOCCOCCOCCOCCOCCNc5cccc6c5C(=O)N(C5CCC(=O)NC5=O)C6=O)cn4)ccc3o2)ccc1=O (stereo not drawn)
IC50: < 0.1 µM
--
compound: Cc1ncsc1-c1ccc(CNC(=O)[C@@H]2C[C@@H](O)CN2C(=O)[C@H](C(C)C)N2Cc3ccccc3C2=O)c(OCCOCCOCCOCCOc2ccc(COc3ccc4oc(-c5ccc(=O)n(C)n5)nc4c3)nc2)c1
IC50: 0.101 µM
--
compound: CNc1c(-c2cn3c(n2)sc2cc(OCCOCC(=O)N[C@H](C(=O)N4C[C@H](O)C[C@H]4C(=O)NCc4ccc(-c5scnc5C)cc4)C(C)(C)C)ccc23)nc2cc(C#N)ccn12
IC50: < 0.1 µM
--
compound: Cc1ccc2nc(-c3ccc(NCCOCCOCC(=O)N[C@H](C(=O)N4C[C@H](O)C[C@H]4C(=O)NCc4ccc(-c5scnc5C)cc4)C(C)(C)C)cc3)sc2c1
IC50: > 0.5 µM
--
compound: CNc1c(-c2cn3c(n2)sc2cc(OCCOCCOc4cc(-c5scnc5C)ccc4CNC(=O)[C@@H]4C[C@@H](O)CN4C(=O)[C@H](C(C)C)N4Cc5ccccc5C4=O)ccc23)nc2cc(C#N)ccn12
IC50: 0.1 to 0.5 µM
--
compound: Cn1nc(-c2nc3cc(NC(=O)c4ccc(OCCOCCNc5cccc6c5C(=O)N(C5CCC(=O)NC5=O)C6=O)cn4)ccc3o2)ccc1=O (stereo not drawn)
IC50: < 0.1 µM
--
compound: CC(C)C[C@H](NC(=O)[C@@H](O)[C@H](N)Cc1ccccc1)C(=O)NCCOCCOCCOCCOCCOc1ccc(C(=O)Nc2ccc3oc(-c4ccc(=O)n(C)n4)nc3c2)nc1
IC50: < 0.1 µM
--
compound: Cc1ncsc1-c1ccc(CNC(=O)[C@@H]2C[C@@H](O)CN2C(=O)[C@H](C(C)C)N2Cc3ccccc3C2=O)c(OCCOCCOCCOCCOc2ccc(C(=O)Nc3ccc4oc(-c5ccc(=O)n(C)n5)nc4c3)nc2)c1
IC50: < 0.1 µM
--
compound: Cn1nc(-c2nc3cc(NC(=O)c4ccc(OCCOCCOCCOCCOCCOCCOCCOCCOCCNc5cccc6c5C(=O)N(C5CCC(=O)NC5=O)C6=O)cn4)ccc3o2)ccc1=O (stereo not drawn)
IC50: < 0.1 µM

Okay, next one:
Fill in the blank: the reported IC50 of CC(C)C[C@H](NC(=O)[C@@H](O)[C@H](N)Cc1ccccc1)C(=O)NCCOCCOCCOc1ccc(COc2ccc3oc(-c4ccc(=O)n(C)n4)nc3c2)nc1 [Compound 49, formate] is ____.
< 0.1 µM
